- assay.system: LRRK2 G2019S (Homo sapiens, UniProt Q5S007, G2019S)
- Sequence (Q5S007 whole entry G2019S): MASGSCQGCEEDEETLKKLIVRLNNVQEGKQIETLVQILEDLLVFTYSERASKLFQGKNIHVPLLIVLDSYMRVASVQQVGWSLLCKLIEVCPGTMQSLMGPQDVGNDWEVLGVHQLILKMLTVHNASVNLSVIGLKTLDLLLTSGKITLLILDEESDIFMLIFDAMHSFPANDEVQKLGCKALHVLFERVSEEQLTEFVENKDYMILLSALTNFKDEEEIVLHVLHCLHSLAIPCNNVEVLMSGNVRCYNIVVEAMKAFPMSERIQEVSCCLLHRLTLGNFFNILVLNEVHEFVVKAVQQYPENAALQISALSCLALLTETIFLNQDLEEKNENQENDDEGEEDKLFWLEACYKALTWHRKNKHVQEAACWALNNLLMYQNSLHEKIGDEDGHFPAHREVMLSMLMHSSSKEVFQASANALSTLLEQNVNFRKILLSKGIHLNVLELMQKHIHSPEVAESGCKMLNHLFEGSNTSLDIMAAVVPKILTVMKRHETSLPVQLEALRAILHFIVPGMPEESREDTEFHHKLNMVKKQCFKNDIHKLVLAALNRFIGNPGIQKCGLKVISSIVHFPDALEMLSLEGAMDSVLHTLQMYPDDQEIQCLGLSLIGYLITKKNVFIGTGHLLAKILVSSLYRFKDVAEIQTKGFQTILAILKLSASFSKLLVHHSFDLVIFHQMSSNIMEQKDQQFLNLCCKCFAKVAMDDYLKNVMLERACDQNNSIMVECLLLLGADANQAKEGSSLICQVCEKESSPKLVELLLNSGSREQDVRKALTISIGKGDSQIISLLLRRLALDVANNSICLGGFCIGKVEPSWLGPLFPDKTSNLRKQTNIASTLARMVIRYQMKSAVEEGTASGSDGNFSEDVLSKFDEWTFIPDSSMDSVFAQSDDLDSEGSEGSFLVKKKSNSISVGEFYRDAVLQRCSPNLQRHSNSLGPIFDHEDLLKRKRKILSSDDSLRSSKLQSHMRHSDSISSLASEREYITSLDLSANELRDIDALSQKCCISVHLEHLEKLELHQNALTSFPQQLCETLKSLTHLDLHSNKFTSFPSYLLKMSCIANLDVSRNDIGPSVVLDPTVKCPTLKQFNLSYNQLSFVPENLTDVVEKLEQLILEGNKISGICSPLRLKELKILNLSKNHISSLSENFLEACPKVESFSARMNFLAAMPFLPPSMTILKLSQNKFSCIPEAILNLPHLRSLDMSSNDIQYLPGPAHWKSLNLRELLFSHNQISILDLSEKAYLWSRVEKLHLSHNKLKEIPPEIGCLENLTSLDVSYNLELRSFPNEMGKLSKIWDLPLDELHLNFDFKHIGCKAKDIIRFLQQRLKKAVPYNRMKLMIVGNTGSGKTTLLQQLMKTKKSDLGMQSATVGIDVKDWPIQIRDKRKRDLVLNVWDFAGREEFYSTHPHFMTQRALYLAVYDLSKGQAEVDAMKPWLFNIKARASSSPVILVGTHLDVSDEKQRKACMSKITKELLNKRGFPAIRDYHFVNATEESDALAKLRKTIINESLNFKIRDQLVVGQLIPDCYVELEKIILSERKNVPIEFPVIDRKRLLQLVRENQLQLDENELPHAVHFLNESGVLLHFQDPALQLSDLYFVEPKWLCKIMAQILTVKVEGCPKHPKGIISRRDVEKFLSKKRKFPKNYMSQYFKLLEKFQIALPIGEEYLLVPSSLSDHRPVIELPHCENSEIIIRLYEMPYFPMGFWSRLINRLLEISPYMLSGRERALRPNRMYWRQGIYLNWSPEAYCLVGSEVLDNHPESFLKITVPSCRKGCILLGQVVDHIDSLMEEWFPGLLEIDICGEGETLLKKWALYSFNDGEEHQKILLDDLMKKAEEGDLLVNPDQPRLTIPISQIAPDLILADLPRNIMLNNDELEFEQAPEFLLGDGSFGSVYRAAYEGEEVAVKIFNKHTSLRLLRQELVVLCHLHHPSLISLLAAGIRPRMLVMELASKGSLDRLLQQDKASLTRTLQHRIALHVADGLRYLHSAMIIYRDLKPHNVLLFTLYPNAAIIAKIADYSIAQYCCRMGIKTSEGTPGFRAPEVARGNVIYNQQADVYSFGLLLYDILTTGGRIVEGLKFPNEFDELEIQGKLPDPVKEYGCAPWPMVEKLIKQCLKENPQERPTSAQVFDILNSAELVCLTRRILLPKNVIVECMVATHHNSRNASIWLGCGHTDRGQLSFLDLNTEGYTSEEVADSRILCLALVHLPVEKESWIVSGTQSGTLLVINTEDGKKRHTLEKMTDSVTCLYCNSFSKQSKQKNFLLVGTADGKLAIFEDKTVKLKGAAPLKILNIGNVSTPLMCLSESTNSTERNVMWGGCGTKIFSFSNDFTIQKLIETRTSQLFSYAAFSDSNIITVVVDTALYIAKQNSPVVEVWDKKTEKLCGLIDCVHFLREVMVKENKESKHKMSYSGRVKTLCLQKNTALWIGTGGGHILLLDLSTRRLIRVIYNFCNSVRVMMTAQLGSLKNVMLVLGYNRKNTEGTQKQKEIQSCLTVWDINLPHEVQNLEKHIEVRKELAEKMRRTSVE
- experimental.protocol: LRRK2 Kinase Activity Assay (LanthaScreen TR-FRET), G2019S
- condition.summary: recombinant G2019S-LRRK2, 25 μM ATP, 400 nM LRRKtide, 60 min; class symbols
endpoint: IC50

Please review the entries below; each comes with its answer.
compound	IC50
N#Cc1ccc2c(c1)CCC[C@H]2Oc1cc2c(-c3cnco3)n[nH]c2cn1 (single isomer, unassigned) [Example 32, enantiomer 1]	100 to 1000 nM
Cc1nc2c(c(C)c1C#N)CCC[C@@H]2Nc1ccc2[nH]nc(-c3cnco3)c2c1 (single isomer, unassigned) [Example 164, enantiomer 1]	< 100 nM

Please give IC50, item by item, for the list that follows.
1. Cc1n[nH]c2ccc(O[C@H]3CCc4cc(C#N)ccc43)cc12 (single isomer, unassigned) [Example 1, enantiomer 1]
2. Cc1n[nH]c2ccc(O[C@H]3CCCc4cc(C#N)ccc43)cc12 (single isomer, unassigned) [Example 19, enantiomer 1]
3. N#Cc1cnc2c(c1)CC(F)(F)C2Nc1ccc2[nH]nc(-c3cnco3)c2c1 (stereo not shown) [Example 34]
4. N#Cc1ccc2c(c1)CCC[C@@H]2Nc1ccc2[nH]nc(-c3ccc4c(c3)OCCO4)c2c1 (single isomer, unassigned) [Example 84]
5. N#Cc1ccc2c(c1)OCC[C@@H]2Nc1ccc2[nH]nc(-c3cnoc3)c2c1 (single isomer, unassigned) [192, enantiomer 2]
6. N#Cc1cnc2c(c1)OCC[C@@H]2Nc1ccc2[nH]nc(-c3cnco3)c2c1 (single isomer, unassigned) [194, enantiomer 1]
7. Cc1n[nH]c2ccc(N[C@H]3CCc4c(C#N)cccc43)cc12 (single isomer, unassigned) [Example 129, enantiomer 1]

1. < 100 nM
2. 100 to 1000 nM
3. < 100 nM
4. < 100 nM
5. < 100 nM
6. < 100 nM
7. 100 to 1000 nM

Please give IC50, item by item, for the list that follows.
1. C[C@@H]1C[C@@H](Nc2ccc3[nH]nc(-c4cnco4)c3c2)c2ccc(C#N)cc21 (single isomer, unassigned) [Example 168, enantiomer 1]
2. CC1(C)CC[C@H](Nc2ccc3[nH]nc(-c4cnco4)c3c2)c2ccc(C#N)cc21 (single isomer, unassigned) [Example 115, enantiomer 2]
3. N#Cc1cnc2c(c1C(F)F)CCC[C@@H]2Nc1ccc2[nH]nc(-c3cnco3)c2c1 (single isomer, unassigned) [Example 147, enantiomer 2]
4. COc1cc(OC)cc(-c2n[nH]c3ccc(N[C@H]4CCCc5cc(C#N)ccc54)cc23)c1 (single isomer, unassigned) [Example 58]
5. N#Cc1ccc2c(c1)CCC[C@@H]2Nc1ccc2[nH]nc(C3=CCOCC3)c2c1 (single isomer, unassigned) [Example 88]
6. N#Cc1ccc2c(c1)CCC[C@@H]2Nc1ccc2[nH]nc(-c3ccc4ncsc4c3)c2c1 [Example 59]

< 100 nM
< 100 nM
< 100 nM
< 100 nM
< 100 nM
< 100 nM
